Target: hKv3.1b (Homo sapiens, UniProt P48547)
Construct: expressed in transfected cells
Sequence (P48547 1-585 isoform P48547-2): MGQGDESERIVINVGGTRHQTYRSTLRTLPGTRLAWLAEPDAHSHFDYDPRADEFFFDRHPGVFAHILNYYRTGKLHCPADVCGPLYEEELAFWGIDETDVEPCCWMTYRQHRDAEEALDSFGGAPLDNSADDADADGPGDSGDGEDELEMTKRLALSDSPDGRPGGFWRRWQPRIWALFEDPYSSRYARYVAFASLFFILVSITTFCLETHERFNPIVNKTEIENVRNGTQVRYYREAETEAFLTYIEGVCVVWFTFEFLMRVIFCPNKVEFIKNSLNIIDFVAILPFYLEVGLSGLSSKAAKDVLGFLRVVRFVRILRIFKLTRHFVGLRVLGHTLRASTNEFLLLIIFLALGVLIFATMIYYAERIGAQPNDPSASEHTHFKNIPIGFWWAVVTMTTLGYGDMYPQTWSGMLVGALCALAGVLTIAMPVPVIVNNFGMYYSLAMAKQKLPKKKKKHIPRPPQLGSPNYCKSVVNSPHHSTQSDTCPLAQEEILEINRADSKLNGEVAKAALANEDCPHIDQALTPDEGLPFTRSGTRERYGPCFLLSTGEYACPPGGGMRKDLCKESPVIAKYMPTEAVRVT
Assay: QPatch automated whole-cell patch-clamp, shift of voltage threshold for channel activation
Assay type: cell-based
Conditions: HEK-293 cells stably expressing hKv3.1b; concentration needed to shift the threshold 5 mV, read from fitted concentration response curve
Method: HEK-293 cells stably expressing hKv3.1b was used for the experiments. Cells were cultured in DMEM medium supplemented with 10% Fetal Bovine Serum, 100 ug/mL Geneticidin and 100 u/mL Penicillin/Streptomycin (all from Gibco). Cells were grown to 80-90% confluency at 37° C. and 5% CO2. […] Leak subtraction protocol was applied at −33% of the sweep amplitude, and serial resistance values were constantly monitored. […]
quantity.measured: ECdelta5mV (nM)
Enter your answer as a number in nM; do not include the unit.

Asked: Tell us which ECdelta5mV value is on record for Cc1cnc(CNC(=O)c2ccc(S(=O)(=O)c3ccccc3)s2)cn1
Given back: 2400

Asked: Tell us which ECdelta5mV value is on record for Cc1ccc(S(=O)(=O)c2ccc(C(=O)NCc3ncn(C)n3)s2)cc1
Given back: 3100

Asked: Tell us which ECdelta5mV value is on record for COc1ccc(S(=O)(=O)c2ccc(C(=O)NCc3cnc(C)cn3)s2)cc1
Given back: 1500

Asked: Tell us which ECdelta5mV value is on record for Cc1cnc(CNC(=O)c2ccc(S(=O)(=O)c3ccc(F)cc3C)s2)cn1
Given back: 1900

Asked: Tell us which ECdelta5mV value is on record for Cc1ccc(S(=O)(=O)c2ccc(C(=O)NCc3nc(C)no3)s2)cc1
Given back: 2500

Asked: Tell us which ECdelta5mV value is on record for Cc1ccc(S(=O)(=O)c2ccc(C(=O)NCc3cnc(C)cn3)s2)cc1
Given back: 1200

Asked: Tell us which ECdelta5mV value is on record for Cc1ccc(S(=O)(=O)c2ccc(C(=O)NCc3cnn(C)c3)s2)cc1
Given back: 2600

Asked: Tell us which ECdelta5mV value is on record for Cc1ccc(S(=O)(=O)c2ccc(C(=O)NCc3cc(F)ccn3)o2)cc1
Given back: 4100

Asked: Tell us which ECdelta5mV value is on record for Cc1ccc(S(=O)(=O)c2ccc(C(=O)NCc3cnc(C)cn3)o2)cc1
Given back: 2100

Asked: Tell us which ECdelta5mV value is on record for Cc1ccc(S(=O)(=O)c2ccc(C(=O)NCc3cnc(C)nc3)s2)cc1
Given back: 1700

Asked: Tell us which ECdelta5mV value is on record for Cc1cnc(CNC(=O)c2ccc(S(=O)(=O)c3ccc(C(F)F)cc3)s2)cn1
Given back: 1700

Asked: Tell us which ECdelta5mV value is on record for COc1ccc(S(=O)(=O)c2ccc(C(=O)NCc3cnccn3)o2)cc1
Given back: 2700

Origin of values: patent US20220204489A1
